- Target Under Test: G2019S LRRK2 (Homo sapiens, UniProt Q5S007, G2019S)
- Construct: expressed in transfected cells; host or cells: HEK293 (ATCC CRL-1573), transient transfection, ubiquitin promoter
- Sequence (Q5S007 whole entry G2019S): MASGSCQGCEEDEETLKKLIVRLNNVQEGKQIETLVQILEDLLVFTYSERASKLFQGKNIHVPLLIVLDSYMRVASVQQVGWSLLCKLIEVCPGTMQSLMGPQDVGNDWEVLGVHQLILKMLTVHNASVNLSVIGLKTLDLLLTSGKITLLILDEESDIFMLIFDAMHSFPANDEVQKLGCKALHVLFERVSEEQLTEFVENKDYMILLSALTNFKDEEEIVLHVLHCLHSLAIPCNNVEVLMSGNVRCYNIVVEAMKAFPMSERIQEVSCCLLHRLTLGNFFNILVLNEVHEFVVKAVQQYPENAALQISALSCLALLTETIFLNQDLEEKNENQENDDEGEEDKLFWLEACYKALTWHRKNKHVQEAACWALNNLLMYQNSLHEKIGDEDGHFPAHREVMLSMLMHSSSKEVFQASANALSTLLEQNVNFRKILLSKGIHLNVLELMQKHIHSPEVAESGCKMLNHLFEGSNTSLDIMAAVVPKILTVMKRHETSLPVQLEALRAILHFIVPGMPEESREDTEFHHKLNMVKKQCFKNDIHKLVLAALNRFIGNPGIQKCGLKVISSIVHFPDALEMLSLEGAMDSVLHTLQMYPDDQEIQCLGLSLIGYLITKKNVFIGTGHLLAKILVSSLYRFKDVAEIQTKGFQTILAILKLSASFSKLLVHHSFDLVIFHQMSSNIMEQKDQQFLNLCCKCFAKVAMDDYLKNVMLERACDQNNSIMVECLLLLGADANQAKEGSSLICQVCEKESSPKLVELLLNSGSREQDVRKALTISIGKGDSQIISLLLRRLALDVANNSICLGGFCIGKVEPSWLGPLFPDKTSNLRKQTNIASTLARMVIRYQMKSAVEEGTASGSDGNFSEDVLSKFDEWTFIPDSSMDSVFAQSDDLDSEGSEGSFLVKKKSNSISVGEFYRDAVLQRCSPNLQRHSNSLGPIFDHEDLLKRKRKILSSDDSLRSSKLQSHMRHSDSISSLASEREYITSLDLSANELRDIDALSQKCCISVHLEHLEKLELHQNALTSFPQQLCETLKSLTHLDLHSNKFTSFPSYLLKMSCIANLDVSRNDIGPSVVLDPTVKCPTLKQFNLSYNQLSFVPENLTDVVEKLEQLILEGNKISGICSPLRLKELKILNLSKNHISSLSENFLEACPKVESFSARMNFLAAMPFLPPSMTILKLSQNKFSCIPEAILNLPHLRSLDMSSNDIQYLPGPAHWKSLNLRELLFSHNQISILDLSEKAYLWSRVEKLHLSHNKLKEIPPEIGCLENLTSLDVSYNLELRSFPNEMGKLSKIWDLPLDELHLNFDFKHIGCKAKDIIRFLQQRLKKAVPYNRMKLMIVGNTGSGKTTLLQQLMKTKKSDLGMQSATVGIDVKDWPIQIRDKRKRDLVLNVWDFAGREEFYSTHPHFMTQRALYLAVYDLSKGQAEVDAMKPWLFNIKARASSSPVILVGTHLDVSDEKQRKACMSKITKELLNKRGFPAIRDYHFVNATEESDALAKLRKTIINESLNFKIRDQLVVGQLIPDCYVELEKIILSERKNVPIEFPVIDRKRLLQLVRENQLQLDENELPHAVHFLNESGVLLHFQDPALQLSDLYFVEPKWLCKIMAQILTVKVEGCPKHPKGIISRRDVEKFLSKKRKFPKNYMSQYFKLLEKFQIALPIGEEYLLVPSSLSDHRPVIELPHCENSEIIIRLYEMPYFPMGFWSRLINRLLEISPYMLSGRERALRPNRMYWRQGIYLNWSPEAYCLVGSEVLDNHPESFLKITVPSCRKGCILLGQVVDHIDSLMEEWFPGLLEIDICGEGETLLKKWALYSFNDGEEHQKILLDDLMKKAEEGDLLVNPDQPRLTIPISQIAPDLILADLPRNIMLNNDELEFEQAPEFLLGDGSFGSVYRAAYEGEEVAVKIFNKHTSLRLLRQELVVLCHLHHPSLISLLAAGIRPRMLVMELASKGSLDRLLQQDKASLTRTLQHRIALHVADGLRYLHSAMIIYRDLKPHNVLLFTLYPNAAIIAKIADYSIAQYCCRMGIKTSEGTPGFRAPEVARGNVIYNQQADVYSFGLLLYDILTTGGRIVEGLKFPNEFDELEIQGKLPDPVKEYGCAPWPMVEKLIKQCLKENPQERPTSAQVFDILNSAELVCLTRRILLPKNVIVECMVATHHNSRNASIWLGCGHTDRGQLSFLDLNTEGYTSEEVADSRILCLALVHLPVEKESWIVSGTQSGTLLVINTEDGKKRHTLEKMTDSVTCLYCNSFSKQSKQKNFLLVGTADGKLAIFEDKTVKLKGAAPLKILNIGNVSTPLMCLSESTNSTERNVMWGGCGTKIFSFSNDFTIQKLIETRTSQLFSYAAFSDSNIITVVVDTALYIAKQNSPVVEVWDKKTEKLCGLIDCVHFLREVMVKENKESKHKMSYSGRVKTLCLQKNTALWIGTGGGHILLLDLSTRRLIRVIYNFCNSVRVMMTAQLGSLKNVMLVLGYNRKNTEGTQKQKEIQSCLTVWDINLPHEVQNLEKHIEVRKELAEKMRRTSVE
- Protocol Summary: LRRK2 degradation assay, G2019S LRRK2-HiBit expressed from plasmid in HEK293 cells
- Type: cell-based
- Test Settings: HEK293 cells transfected with HiBit-tagged G2019S LRRK2, 24 hours compound incubation

Compound: CC(C)Oc1ccc2[nH]nc(-c3cc(N4CCO[C@H](CCN5CCN(CC6CCN(c7ccc8c(c7)C(=O)N(C7CCC(=O)NC7=O)C8=O)CC6)CC5)C4)ncn3)c2c1 (some centres unmarked) [compound 50]
Dmax: ≥ 70%
//
Compound: CC(C)Oc1ccc2[nH]nc(-c3cc(N4CCN(CCC5CCN(CC6CCN(c7ccc8c(c7)C(=O)N(C7CCC(=O)NC7=O)C8=O)CC6)CC5)CC4)ncn3)c2c1 (centres unmarked) [compound 41]
Dmax: 50 to 70%
//
Compound: CC(C)Oc1ccc2[nH]nc(-c3cc(N4CCN(CC[C@H]5CCN(CC6CCN(c7ccc8c(c7)C(=O)N(C7CCC(=O)NC7=O)C8=O)CC6)C5)CC4)ncn3)c2c1 (some centres unmarked) [compound 42]
Dmax: 50 to 70%
//
Compound: CC(C)Oc1ccc2[nH]nc(-c3cc(N4CCN(CCN5CCN(CC6CCN(c7ccc8c(c7)C(=O)N(C7CCC(=O)NC7=O)C8=O)CC6)CC5)CC4)ncn3)c2c1 (centres unmarked) [compound 39]
Dmax: ≥ 70%
//
Compound: C[C@H]1CN(c2cc(-c3n[nH]c4ccc(OC5(C)CC5)cc34)ncn2)CCN1CCOCCOCCOCCOCCOc1ccc2c(c1)C(=O)N(C1CCC(=O)NC1=O)C2=O (some centres unmarked) [compound 5]
Dmax: ≥ 70%
//
Compound: CC(C)Oc1ccc2[nH]nc(-c3cc(N4CCN(CC[C@@H]5CCN(CC6CCN(c7ccc8c(c7)C(=O)N(C7CCC(=O)NC7=O)C8=O)CC6)C5)CC4)ncn3)c2c1 (some centres unmarked) [compound 43]
Dmax: 50 to 70%
//
Compound: C[C@H]1CN(c2cc(-c3[nH]nc4ccc(OC5(C)CC5)cc34)ncn2)CCN1CCOc1ccc2c(c1)C(=O)N(C1CCC(=O)NC1=O)C2=O (some centres unmarked) [compound 1]
Dmax: < 50%
//
Compound: CC(C)Oc1cc2c(-c3ccnc(N4CCN(CCOCCOCCOCCOc5ccc6c(c5)C(=O)N(C5CCC(=O)NC5=O)C6=O)[C@@H](C)C4)c3)n[nH]c2cc1F (some centres unmarked) [compound 14]
Dmax: 50 to 70%
//
Compound: CC1(Oc2ccc3[nH]nc(-c4cc(N5CCO[C@@H](CCOCCOCCOCCOc6ccc7c(c6)C(=O)N(C6CCC(=O)NC6=O)C7=O)C5)ncn4)c3c2)CC1 (some centres unmarked) [compound 18]
Dmax: ≥ 70%
//
Compound: C[C@H]1CN(c2cc(-c3n[nH]c4ccc(OC5(C)CC5)cc34)ncn2)CCN1CCOCCOCCOCCOc1ccc(C(=O)NC2CCC(=O)NC2=O)c(F)c1 (some centres unmarked) [compound 13]
Dmax: < 50%
//
Compound: CC(C)Oc1ccc2[nH]nc(-c3cc(N4CCN(CCN5CCC(CN6CCN(c7ccc8c(c7)CN(C7CCC(=O)NC7=O)C8=O)CC6)CC5)[C@@H](C)C4)ncn3)c2c1 (some centres unmarked) [compound 31]
Dmax: ≥ 70%
